Just for reference, BindingDB's records for doi:10.1021/acs.jmedchem.2c01800 is where these values come from.

Below: a set of entries, each annotated with reported IC50.
# assayed target: Signal transducer and activator of transcription 3 (Homo sapiens, UniProt P40763)
# Sequence (P40763 whole entry): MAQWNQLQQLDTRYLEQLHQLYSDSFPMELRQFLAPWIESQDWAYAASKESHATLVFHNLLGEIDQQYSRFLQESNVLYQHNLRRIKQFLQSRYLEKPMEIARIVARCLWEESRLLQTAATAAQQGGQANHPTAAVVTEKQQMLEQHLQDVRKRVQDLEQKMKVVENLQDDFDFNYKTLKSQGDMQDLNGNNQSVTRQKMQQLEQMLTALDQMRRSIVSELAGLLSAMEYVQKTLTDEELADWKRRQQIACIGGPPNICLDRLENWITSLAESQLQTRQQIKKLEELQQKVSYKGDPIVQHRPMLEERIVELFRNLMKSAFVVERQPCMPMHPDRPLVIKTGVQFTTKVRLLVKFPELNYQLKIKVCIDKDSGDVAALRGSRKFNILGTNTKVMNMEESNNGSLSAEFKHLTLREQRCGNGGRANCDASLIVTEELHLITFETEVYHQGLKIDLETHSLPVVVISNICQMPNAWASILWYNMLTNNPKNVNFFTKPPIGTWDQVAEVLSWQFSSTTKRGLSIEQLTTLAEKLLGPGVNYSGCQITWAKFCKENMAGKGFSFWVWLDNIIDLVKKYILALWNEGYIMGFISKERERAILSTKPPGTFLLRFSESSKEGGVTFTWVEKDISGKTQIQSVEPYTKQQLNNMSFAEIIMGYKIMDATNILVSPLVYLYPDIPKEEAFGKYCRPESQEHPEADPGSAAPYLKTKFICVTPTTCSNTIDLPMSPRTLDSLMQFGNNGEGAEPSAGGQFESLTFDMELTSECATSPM
# run description: Inhibition of IL-23 induced STAT3 phosphorylation in human KIT225 cells by AlphaLISA assay
Numbers only; they are read as nM.

Solved entries (count: 3):
[[record]]
molecular_string = "CNc1cc(Nc2ccccc2OC)nc2c(C(=O)N[C@@H]3CCN(C)C3=O)cnn12"
numeric_readout = 9

[[record]]
molecular_string = "[2H]C([2H])([2H])NC(=O)c1nnc(Nc2ccc(N3CC(O)C3)cn2)cc1Nc1cccc(-c2ncn(C)n2)c1OC"
numeric_readout = 5.9

[[record]]
molecular_string = "CNC(=O)c1nnc(NC(=O)N2CCC2)cc1Nc1cccc(-c2ncn(C)n2)c1OC"
numeric_readout = 28


Signal transducer and activator of transcription 3 (Homo sapiens, UniProt P40763) assay, compound `CCOc1cccc(Nc2cc(NC)n3ncc(C(=O)N[C@@H]4CCN(C)C4=O)c3n2)n1` , recorded IC50 = 29

Signal transducer and activator of transcription 3 (Homo sapiens, UniProt P40763) assay, compound `CNc1cc(Nc2cccn(-c3ccccn3)c2=O)nc2c(C(=O)N[C@@H]3CCN(C)C3=O)cnn12` , recorded IC50 = 65
